Recorded values, source ChEMBL document CHEMBL1127471.

# Test system: Human alphaherpesvirus 1
# assay_info: The minimum inhibitory concentration was measured on E6SM cells against Herpes simplex virus type 1 (F strain)
# Assay type: functional
Entries annotated with measured MIC
measure: MIC (µg/mL)

{"compound": "Nc1nc2c(ncn2COC(CO)CO)c(=O)[nH]1", "target_entity": "Human alphaherpesvirus 1", "measure": "MIC", "unit_abbrev": "µg/mL", "reported_value": 0.004}
{"compound": "OCC(CO)OCN1CNc2c1nc1nc(-c3ccc(-c4ccccc4)cc3)cn1c2O", "target_entity": "Human alphaherpesvirus 1", "measure": "MIC", "unit_abbrev": "µg/mL", "reported_value": 0.01}
{"compound": "Cc1cn2c(O)c3c(nc2n1)N(COCCO)C(Br)N3 (stereo not drawn)", "target_entity": "Human alphaherpesvirus 1", "measure": "MIC", "unit_abbrev": "µg/mL", "reported_value": 150}
